STUDY_TARGET: T1, human PTPRG on the cell surface (U937 cells, HEL cells) (human, UniProt P23470 20-1445)
T1 construct: Endogenous PTPRG of human AML cell lines
T1 sequence (P23470 20-1445): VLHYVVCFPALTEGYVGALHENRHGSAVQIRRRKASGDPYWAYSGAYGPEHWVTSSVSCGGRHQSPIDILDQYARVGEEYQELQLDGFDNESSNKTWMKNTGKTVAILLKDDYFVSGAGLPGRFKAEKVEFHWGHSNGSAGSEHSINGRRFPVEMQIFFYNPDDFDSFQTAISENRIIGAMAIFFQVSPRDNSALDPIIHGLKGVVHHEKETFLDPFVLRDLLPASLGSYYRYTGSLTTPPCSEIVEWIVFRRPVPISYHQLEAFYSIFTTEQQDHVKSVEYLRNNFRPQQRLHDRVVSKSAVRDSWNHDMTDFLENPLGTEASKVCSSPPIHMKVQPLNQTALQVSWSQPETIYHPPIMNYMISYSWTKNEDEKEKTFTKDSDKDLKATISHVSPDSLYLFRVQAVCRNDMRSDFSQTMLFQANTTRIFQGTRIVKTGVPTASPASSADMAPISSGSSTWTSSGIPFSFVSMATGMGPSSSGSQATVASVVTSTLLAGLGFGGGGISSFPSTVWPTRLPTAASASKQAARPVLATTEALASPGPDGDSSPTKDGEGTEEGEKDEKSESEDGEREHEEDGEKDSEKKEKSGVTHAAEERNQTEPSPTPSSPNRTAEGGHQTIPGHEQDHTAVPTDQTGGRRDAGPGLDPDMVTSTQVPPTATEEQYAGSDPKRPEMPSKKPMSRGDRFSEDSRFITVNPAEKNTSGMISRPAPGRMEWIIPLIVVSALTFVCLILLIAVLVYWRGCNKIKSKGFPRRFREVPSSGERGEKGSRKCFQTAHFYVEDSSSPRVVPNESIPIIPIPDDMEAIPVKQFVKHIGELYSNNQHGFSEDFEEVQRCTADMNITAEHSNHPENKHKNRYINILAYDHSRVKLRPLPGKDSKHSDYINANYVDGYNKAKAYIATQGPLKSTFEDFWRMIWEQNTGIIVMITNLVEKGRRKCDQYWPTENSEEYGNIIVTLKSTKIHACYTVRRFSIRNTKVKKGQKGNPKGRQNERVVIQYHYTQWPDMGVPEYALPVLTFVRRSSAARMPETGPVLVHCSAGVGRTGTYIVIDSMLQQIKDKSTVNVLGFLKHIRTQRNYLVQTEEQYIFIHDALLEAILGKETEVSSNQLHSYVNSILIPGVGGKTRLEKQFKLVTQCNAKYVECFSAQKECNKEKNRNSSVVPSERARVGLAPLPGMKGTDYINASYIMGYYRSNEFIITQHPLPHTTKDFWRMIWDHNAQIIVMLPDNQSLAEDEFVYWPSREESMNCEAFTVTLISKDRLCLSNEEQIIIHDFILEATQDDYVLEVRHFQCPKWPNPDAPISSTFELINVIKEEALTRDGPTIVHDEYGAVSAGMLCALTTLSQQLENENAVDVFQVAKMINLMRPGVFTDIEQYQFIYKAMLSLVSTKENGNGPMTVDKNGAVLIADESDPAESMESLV
ASSAY_DETAILS: flow cytometry on whole HEL cells, screen of the 28 clones (Ctrl row = 0); PTPRG is named as the antigen on HEL cells only in the later examples
REPORTED_PROPERTY: flow cytometry binding value (the table prints no name or unit)
# answer = number (no unit)

{"columns": ["BINDER", "EXPERIMENTAL_VALUE"],
 "data": [
  ["Fab_1955 (Fab, V domains shown, Chimeric rabbit/human Fab; also called P1955; clone 1955) VH: AQSLEESGGRLVTPGTPLTLTCTASGFSLYSYDMSWVRQAPGKGLEWIGLIDGGGNTYYASWAKGRFTISKTSSTTVDLKMTSLTTEDTATYFCARELWPAYSSGAFNIWGPGTLVTISS VL: SFVLTQPASVQVNLGQTVSLTCTADTLSRRYASWYQQKPGQAPVLLIYRDTRRPSGVPDRFSGSSSGNTATLTISGAQAGDEADYYCVTTDGSGSSYLVVFGGGTQLTVTG", 12.9]
]}

Input line: What value of flow cytometry binding value (the table prints no name or unit) has been reported for the following binder? Fab_2388 (Fab, V domains shown, Chimeric rabbit/human Fab; also called P2388; clone 2388) VH: QEQLKESGGGLFKPTDTLTLTCTVSGFSLSNYAISLVRQPPGNGLEWIGAIDAGGVTYYASWAKSRSTITRNTNLNTVTLKMTSLTAADTATYFCAREEWSSSSGLYFSIWGPGTLVTISS VL: SFVLTQPASVQVNLGQTVSLTCTADTLSRRYASWYQQKPGQAPVLLIYRDTSRPSGVPDRFSGSSSGNTATLTISGAQAGDEADYYCATSDGSGSSYLYVFGGGTQLTVTG
Output line: 15

Input line: What do we get for Fab_11 (Fab, V domains shown, Chimeric rabbit/human Fab; also called P11; mAb_11) VH: AQSLEESGGRLVTPGTPLTLTCTVSGFSLSSYAMTWVRQAPGEGLEWIGTIGAGGSPYYASWAKGRFTISKTATTVNLKIISPTTEDTATYFCAREGGGSYYFDLWGPGTLVTVSS VL: SFVLTQPASVQVNLGQTVSLTCTADTLSRSYASWYQQKPGQAPVLLIYRDTSRPSGVPDRFSGSSSGNTATLTISGAQAGDEADYYCATSDGSGSTFHFVFGGGTQLTVTG ?
Output line: -2.13

Input line: // next record Fab_130 (Fab, V domains shown, Chimeric rabbit/human Fab; also called P130; clone 130) VH: QEQQKESGGGLFKPTDTLTLTCTVSGFSLSSNAISWVRQAPGNGLEWIGAIDNSGSAYYATWAKGRSTITRATNLNTVTLKMTSVTAADTATYFCAREDVRADSIDLNMWGPGTLVTISS VL: SFVLTQPASVQVNLGQTVSLTCTADTLSRSYASWYQQKPGQAPVLLIYRDTSRPSGVPDRFSGSSSGNTATLTISGAQAGDEADYYCATSDGSGSSYQFVFGGGTQLTVTG
Output line: 12.6

Input line: Can you handle Fab_28 (Fab, V domains shown, Chimeric rabbit/human Fab; also called P28; clone 28) VH: AQSVEESGGRLVTPGIPLTLTCTVSGFSLNNYAMSWVRQAPGKGLEWIGMIDSGGAAYYATWARGRFTISRTSTTVDLKITSPTTEDTATYFCARELSSLYGAFDPWGPGTLVTVSS VL: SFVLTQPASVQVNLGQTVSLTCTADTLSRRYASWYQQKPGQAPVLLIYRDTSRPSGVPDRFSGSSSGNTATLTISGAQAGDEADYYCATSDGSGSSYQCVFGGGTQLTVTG next?
Output line: 15.8
